# targetOfAssay: T1, human PD-L1 expressed on CHO cells (human, UniProt Q9NZQ7 19-290)
# T1 construct: whole, on cells; Target on CHO cells stably expressing PD-L1; also called huPD-L1
# T1 sequence (Q9NZQ7 19-290): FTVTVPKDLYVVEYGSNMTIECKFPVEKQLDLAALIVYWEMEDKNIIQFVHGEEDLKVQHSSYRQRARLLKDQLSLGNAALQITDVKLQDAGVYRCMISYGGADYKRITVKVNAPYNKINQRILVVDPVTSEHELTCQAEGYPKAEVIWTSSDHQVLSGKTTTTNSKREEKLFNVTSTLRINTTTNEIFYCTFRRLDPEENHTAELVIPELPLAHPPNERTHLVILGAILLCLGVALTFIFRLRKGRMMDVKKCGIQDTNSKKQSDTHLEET
# experimentSummary: flow cytometry, CHO cells stably expressing PD-L1, Fc fusion at 33.3 nM
# MFI at 33.3 nM per entry
Give just the number in MFI; leave the unit off.

Using the record for CD80 V68M/K89N IgV-Fc (Fc fusion, not shown: small tags and cut ends; a dimerising Fc or GST) VIHVTKEVKEVATLSCGHNVSVEELAQTRIYWQKEKKMVLTMMSGDMNIWPEYKNRTIFDITNNLSIMILALRPSDEGTYECVVLKYENDAFKREHLAEVTLSVKAD , report its MFI at 33.3 nM.
538

Which MFI at 33.3 nM value belongs to CD80 E35D/D46V/M47V/V68M/K89N IgV-Fc (Fc fusion, not shown: small tags and cut ends; a dimerising Fc or GST) VIHVTKEVKEVATLSCGHNVSVEELAQTRIYWQKDKKMVLTMMSGVVNIWPEYKNRTIFDITNNLSIMILALRPSDEGTYECVVLKYENDAFKREHLAEVTLSVKAD ?
21600

Entry CD80 E35D/N48K/V68M/K89N IgV-Fc (Fc fusion, not shown: small tags and cut ends; a dimerising Fc or GST) VIHVTKEVKEVATLSCGHNVSVEELAQTRIYWQKDKKMVLTMMSGDMKIWPEYKNRTIFDITNNLSIMILALRPSDEGTYECVVLKYENDAFKREHLAEVTLSVKAD : reported MFI at 33.3 nM = ?
17400
